Provenance of the data: the supplement of paper PMC6897291

System: RIVA
EXPERIMENT_DESCRIPTION: growth inhibition by drug alone (1 - RLU/untreated control) (fraction); higher = stronger inhibition
MEASUREMENT_SETUP: 100 nM; time (day): 3; 177Lu-lilotomab satetraxetan 0 ug/ml
Outcome: Satisfied for growth inhibition by drug alone of at least -0.2; Not satisfied for anything lower.

Worked cases, answers included:
O=P1(N(CCCl)CCCl)NCCCO1 (configuration not stated) [Cyclophosphamide monohydrate]
Satisfied
Cc1cc2c(C(C)C)c(O)c(O)c(C=O)c2c(O)c1-c1c(C)cc2c(C(C)C)c(O)c(O)c(C=O)c2c1O [Gossypol]
Satisfied
N[C@@H](Cc1ccc(N(CCCl)CCCl)cc1)C(=O)O [Melphalan]
Not satisfied

Query: I'd appreciate it if you could say whether `Cc1ccccc1-n1c(Cn2cnc3c(N)ncnc32)nc2cccc(C)c2c1=O` has growth inhibition by drug alone at least equal to -0.2.
Response: Satisfied

Query: Could you please find out whether `Cn1cc(C2=C(c3cn(C4CCN(Cc5ccccn5)CC4)c4ccccc34)C(=O)NC2=O)c2ccccc21` has growth inhibition by drug alone that meets -0.2 or exceeds it?
Response: Not satisfied

---

Tested on: U-2932
EXPERIMENT_DESCRIPTION: growth inhibition by drug alone (1 - RLU/untreated control) (fraction); higher = stronger inhibition
MEASUREMENT_SETUP: 1000 nM; time (day): 4; 177Lu-lilotomab satetraxetan 0 ug/ml
REPORTED_ENDPOINT: growth inhibition by drug alone
Answer with the value's number alone.

Worked examples, 3 compounds total:
C=C1C[C@@H]2[C@H](CC[C@]3(C)C(=O)CC[C@@H]23)[C@@]2(C)C=CC(=O)C=C12 [Exemestane]
-0.0359
Cc1cc2c(C(C)C)c(O)c(O)c(C=O)c2c(O)c1-c1c(C)cc2c(C(C)C)c(O)c(O)c(C=O)c2c1O [Gossypol]
0.00751
CCC1(c2ccc(N)cc2)CCC(=O)NC1=O (stereo unspecified) [Aminoglutethimide (Cytadren)]
-0.0577

Query: Report value: growth inhibition by drug alone, system: U-2932, compound: CC[C@@H](C(=O)[C@@H](C)[C@@H](O)[C@H](C)[C@@H]1O[C@@H]([C@@H](CC)C(=O)O)CC[C@@H]1C)[C@H]1O[C@]2(C=C[C@@H](O)[C@]3(CC[C@@](C)([C@H]4CC[C@](O)(CC)[C@H](C)O4)O3)O2)[C@H](C)C[C@@H]1C [Salinomycin (Procoxacin)]
Response: 0.423

Query: State growth inhibition by drug alone (U-2932) of `Cc1ccccc1-n1c(Cn2cnc3c(N)ncnc32)nc2cccc(C)c2c1=O` .
Response: 0.0488

Query: GET growth inhibition by drug alone where system = U-2932 and item = CC(=O)Nc1ccc(OC[C@](C)(O)C(=O)Nc2ccc([N+](=O)[O-])c(C(F)(F)F)c2)cc1 [Andarine (GTX-007)]
Response: 0.0399

---

Tested on: RIVA
EXPERIMENT_DESCRIPTION: growth inhibition by drug alone (1 - RLU/untreated control) (fraction); higher = stronger inhibition
MEASUREMENT_SETUP: 10 nM; time (day): 4; 177Lu-lilotomab satetraxetan 0 ug/ml
Property: growth inhibition by drug alone; scope: individual compounds
Give your answer as a number; write no unit.

Query: Hello, please tell me recorded growth inhibition by drug alone for this one: O=P1(N(CCCl)CCCl)NCCCO1 (centres undefined) [Cyclophosphamide monohydrate]
Response: -0.182

Query: Please report the measured growth inhibition by drug alone for CC(O)(CS(=O)(=O)c1ccc(F)cc1)C(=O)Nc1ccc(C#N)c(C(F)(F)F)c1 (centres undefined) [Bicalutamide (Casodex)]
Response: 0.0197

Query: State, in one line, measured growth inhibition by drug alone of CCC1(c2ccc(N)cc2)CCC(=O)NC1=O (centres undefined) [Aminoglutethimide (Cytadren)]
Response: -0.101
